- procedure_text: Pharmacokinetics assay in SD rats after intragastrical administration
- Assay type: in vivo
- condition_label: both sexes, Sprague-Dawley, rat, plasma, po, 5 mg/kg, read-out: Plasma Conc. Cmax
Consider the following compounds and their measured Cmax readings.

Record excerpt, results attached:
[
  {
    "entry_smiles": "CCc1cc(C)[nH]c(=O)c1CNC(=O)c1c(CC)c(N(CC)C2CCOCC2)cc2oc(CN3CCCCC3)cc12",
    "Cmax": "91.5 ng/mL"
  },
  {
    "entry_smiles": "CCc1c(N(CC)C2CCOCC2)cc2oc(CN3CCCCC3)cc2c1C(=O)NCc1c(OC)cc(C)[nH]c1=O",
    "Cmax": "88.9 ng/mL"
  },
  {
    "entry_smiles": "CCc1c(N(CC)C2CCOCC2)cc2oc(CN3CCCCC3)cc2c1C(=O)NCc1c(C)cc(C)[nH]c1=O",
    "Cmax": "105 ng/mL"
  }
]

# input for lookup
### Prompt May I ask what Cmax has been recorded for `CCc1c(N(CC)C2CCOCC2)cc2oc(C3CCN(C(C)C)CC3)cc2c1C(=O)NCc1c(C)cc(C)[nH]c1=O` ?
### Response 79.1 ng/mL

###

- procedure_text: Pharmacokinetics assay in SD rats after intragastrical administration
- Assay type: in vivo
- condition_label: both sexes, Sprague-Dawley, rat, plasma, po, 5 mg/kg, read-out: Apparent Distribution Volume Vz/F
experimental_endpoint: Vd/F (L/kg)
Kindly answer with a numeric value in L/kg, unit omitted.

[
  {
    "compound": "CCc1cc(C)[nH]c(=O)c1CNC(=O)c1c(CC)c(N(CC)C2CCOCC2)cc2oc(CN3CCCCC3)cc12 [Example 3]",
    "recorded_measurement": 40.5
  },
  {
    "compound": "CCc1c(N(CC)C2CCOCC2)cc2oc(C3CCN(C(C)C)CC3)cc2c1C(=O)NCc1c(C)cc(C)[nH]c1=O [Example 9]",
    "recorded_measurement": 35.1
  },
  {
    "compound": "CCc1c(N(CC)C2CCOCC2)cc2oc(CN3CCCCC3)cc2c1C(=O)NCc1c(OC)cc(C)[nH]c1=O [Example 1]",
    "recorded_measurement": 28.1
  }
]

### Prompt May I ask what Vd/F has been recorded for CCc1c(N(CC)C2CCOCC2)cc2oc(CN3CCCCC3)cc2c1C(=O)NCc1c(C)cc(C)[nH]c1=O [Example 2] ?
### Response 41.4

###

- procedure_text: Pharmacokinetics assay in SD rats after intragastrical administration
- Type: in vivo
- condition_label: both sexes, Sprague-Dawley, rat, plasma, po, 5 mg/kg, read-out: Half-Life t1/2 (converted)
experimental_endpoint: half-life (h)
Kindly answer with a numeric value in h, unit omitted.

Record excerpt, results attached:
[
  {
    "entry_smiles": "CCc1cc(C)[nH]c(=O)c1CNC(=O)c1c(CC)c(N(CC)C2CCOCC2)cc2oc(CN3CCCCC3)cc12",
    "measurement_units": "h",
    "half-life": 2.73
  },
  {
    "entry_smiles": "CCc1c(N(CC)C2CCOCC2)cc2oc(CN3CCCCC3)cc2c1C(=O)NCc1c(OC)cc(C)[nH]c1=O",
    "measurement_units": "h",
    "half-life": 0.8
  },
  {
    "entry_smiles": "CCc1c(N(CC)C2CCOCC2)cc2oc(C3CCN(C(C)C)CC3)cc2c1C(=O)NCc1c(C)cc(C)[nH]c1=O",
    "measurement_units": "h",
    "half-life": 0.719
  }
]

# input for lookup
### Prompt May I ask what half-life has been recorded for `CCc1c(N(CC)C2CCOCC2)cc2oc(CN3CCCCC3)cc2c1C(=O)NCc1c(C)cc(C)[nH]c1=O` ?
### Response 2.2

###

- test_target: EZH2-Y641F (Homo sapiens (Human), UniProt Q15910, Y641F)
- Sequence (Q15910 whole entry Y641F): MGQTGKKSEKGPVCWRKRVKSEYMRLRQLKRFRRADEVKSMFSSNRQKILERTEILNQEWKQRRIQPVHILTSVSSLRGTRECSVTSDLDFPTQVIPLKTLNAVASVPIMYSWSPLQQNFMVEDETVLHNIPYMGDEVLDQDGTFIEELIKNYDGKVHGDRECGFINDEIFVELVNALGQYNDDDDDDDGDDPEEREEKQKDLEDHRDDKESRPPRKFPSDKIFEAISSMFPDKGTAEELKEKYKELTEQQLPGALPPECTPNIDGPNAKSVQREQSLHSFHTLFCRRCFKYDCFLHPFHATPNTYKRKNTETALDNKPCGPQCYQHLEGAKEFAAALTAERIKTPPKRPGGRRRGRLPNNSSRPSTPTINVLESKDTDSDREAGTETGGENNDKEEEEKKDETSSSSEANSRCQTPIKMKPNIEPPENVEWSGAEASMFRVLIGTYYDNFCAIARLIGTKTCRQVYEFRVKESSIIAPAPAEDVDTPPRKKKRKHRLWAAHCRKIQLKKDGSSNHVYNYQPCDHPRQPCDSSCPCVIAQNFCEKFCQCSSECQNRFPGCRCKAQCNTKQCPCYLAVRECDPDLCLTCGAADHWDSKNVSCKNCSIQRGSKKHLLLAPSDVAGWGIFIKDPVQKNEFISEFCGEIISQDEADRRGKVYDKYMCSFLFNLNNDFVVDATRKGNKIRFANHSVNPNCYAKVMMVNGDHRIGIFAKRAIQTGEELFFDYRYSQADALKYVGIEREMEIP
- Sequence (O75530 whole entry partner): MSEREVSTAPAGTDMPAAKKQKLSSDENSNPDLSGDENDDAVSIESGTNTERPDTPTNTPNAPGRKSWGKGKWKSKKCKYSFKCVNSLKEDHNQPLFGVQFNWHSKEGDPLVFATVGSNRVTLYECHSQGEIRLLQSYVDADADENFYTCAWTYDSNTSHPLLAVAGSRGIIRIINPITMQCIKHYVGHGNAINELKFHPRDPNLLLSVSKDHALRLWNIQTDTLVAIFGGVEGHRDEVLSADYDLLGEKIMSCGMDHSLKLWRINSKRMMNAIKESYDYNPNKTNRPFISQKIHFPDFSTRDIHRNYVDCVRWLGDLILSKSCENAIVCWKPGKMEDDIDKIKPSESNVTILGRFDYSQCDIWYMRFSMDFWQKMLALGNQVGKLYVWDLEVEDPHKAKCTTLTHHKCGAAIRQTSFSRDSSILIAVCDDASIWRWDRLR
- Sequence (Q15022 whole entry partner): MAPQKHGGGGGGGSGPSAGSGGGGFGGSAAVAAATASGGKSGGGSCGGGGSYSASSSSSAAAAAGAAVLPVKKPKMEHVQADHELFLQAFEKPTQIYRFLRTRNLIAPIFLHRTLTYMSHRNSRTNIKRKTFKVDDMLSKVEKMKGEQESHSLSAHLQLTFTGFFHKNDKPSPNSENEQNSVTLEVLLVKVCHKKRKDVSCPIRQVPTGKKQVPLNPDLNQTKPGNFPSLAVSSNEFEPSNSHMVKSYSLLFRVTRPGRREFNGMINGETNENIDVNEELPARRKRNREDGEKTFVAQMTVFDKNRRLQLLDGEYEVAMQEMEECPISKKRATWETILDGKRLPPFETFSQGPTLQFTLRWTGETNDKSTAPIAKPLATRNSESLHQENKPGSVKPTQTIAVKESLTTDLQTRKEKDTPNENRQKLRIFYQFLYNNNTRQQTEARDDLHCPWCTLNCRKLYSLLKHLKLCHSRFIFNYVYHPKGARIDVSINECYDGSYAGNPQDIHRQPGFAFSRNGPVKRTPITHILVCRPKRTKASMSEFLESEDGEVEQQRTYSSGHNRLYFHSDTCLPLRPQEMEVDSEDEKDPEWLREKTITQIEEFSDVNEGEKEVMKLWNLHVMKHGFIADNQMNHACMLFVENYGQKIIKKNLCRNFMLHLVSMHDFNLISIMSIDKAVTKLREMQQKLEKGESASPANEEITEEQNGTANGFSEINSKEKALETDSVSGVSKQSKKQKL
- Sequence (Q09028 whole entry partner): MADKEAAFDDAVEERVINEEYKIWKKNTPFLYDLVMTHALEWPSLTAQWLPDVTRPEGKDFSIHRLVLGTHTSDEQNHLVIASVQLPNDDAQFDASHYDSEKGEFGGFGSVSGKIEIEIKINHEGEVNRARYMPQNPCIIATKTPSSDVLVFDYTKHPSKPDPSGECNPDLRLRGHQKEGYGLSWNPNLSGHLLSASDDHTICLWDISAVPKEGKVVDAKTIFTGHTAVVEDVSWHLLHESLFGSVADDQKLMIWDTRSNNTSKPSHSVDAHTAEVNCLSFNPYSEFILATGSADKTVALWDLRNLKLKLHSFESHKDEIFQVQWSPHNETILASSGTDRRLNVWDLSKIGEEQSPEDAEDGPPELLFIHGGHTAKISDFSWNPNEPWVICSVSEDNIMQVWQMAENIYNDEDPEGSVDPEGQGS
- Sequence (Q6ZN18 whole entry partner): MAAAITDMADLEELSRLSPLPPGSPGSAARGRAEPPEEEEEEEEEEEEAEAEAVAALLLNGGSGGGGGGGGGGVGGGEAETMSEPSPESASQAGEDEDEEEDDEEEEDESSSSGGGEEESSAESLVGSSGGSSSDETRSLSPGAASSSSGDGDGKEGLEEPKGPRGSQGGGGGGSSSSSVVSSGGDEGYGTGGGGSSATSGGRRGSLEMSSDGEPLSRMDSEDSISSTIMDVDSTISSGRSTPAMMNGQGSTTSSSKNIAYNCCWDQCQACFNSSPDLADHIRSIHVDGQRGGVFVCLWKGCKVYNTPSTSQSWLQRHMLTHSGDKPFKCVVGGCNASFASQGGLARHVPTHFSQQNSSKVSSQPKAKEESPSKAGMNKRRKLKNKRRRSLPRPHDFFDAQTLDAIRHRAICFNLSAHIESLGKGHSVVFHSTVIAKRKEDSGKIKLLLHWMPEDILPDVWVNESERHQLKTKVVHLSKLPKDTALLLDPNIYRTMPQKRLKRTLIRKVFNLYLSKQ
- procedure_text: EZH2-Y641F mutant enzyme activity assay (HTRF)
- condition_label: read-out: IC50 for inhibiting the activity of enzyme EZH2-Y641F
experimental_endpoint: pIC50
pIC50 is defined as minus the log10 of a concentration measured in mol/L.

[
  {
    "entry_smiles": "CCN(c1cc2occ(C)c2c(C(=O)NCc2c(OC)cc(C)[nH]c2=O)c1C)C1CCOCC1",
    "pIC50": 8.25
  }
]

### Prompt May I ask what pIC50 has been recorded for `CCN(c1cc2oc(C)cc2c(C(=O)NCc2c(OC)cc(C)[nH]c2=O)c1C)C1CCOCC1` ?
### Response 8.55

### Prompt May I ask what pIC50 has been recorded for `COc1cc(C)[nH]c(=O)c1CNC(=O)c1c(C)c(N(C)C2CCOCC2)cc2occc12` ?
### Response 9.52

###

- procedure_text: Pharmacokinetics assay in SD rats after intragastrical administration
- Assay type: in vivo
- condition_label: both sexes, Sprague-Dawley, rat, plasma, po, 5 mg/kg, read-out: Area Under Curve AUC
experimental_endpoint: AUC (ng·h/mL)
Kindly answer with a numeric value in ng·h/mL, unit omitted.

Record excerpt, results attached:
[
  {
    "entry_smiles": "CCc1cc(C)[nH]c(=O)c1CNC(=O)c1c(CC)c(N(CC)C2CCOCC2)cc2oc(CN3CCCCC3)cc12",
    "measurement_units": "ng·h/mL",
    "AUC": 487
  },
  {
    "entry_smiles": "CCc1c(N(CC)C2CCOCC2)cc2oc(CN3CCCCC3)cc2c1C(=O)NCc1c(C)cc(C)[nH]c1=O",
    "measurement_units": "ng·h/mL",
    "AUC": 378
  },
  {
    "entry_smiles": "CCc1c(N(CC)C2CCOCC2)cc2oc(CN3CCCCC3)cc2c1C(=O)NCc1c(OC)cc(C)[nH]c1=O",
    "measurement_units": "ng·h/mL",
    "AUC": 246
  }
]

# input for lookup
### Prompt May I ask what AUC has been recorded for `CCc1c(N(CC)C2CCOCC2)cc2oc(C3CCN(C(C)C)CC3)cc2c1C(=O)NCc1c(C)cc(C)[nH]c1=O` ?
### Response 274

###

Consider the following compounds and their measured IC50 readings.
- test_target: EZH2-A677G (Homo sapiens (Human), UniProt Q15910, A677G)
- Sequence (Q15910 whole entry A677G): as the sequence (Q15910 whole entry Y641F) above, with F641Y, A677G counted along it
- Sequence (O75530 whole entry partner): as the sequence (O75530 whole entry partner) above
- Sequence (Q15022 whole entry partner): as the sequence (Q15022 whole entry partner) above
- Sequence (Q09028 whole entry partner): as the sequence (Q09028 whole entry partner) above
- Sequence (Q6ZN18 whole entry partner): as the sequence (Q6ZN18 whole entry partner) above
- procedure_text: EZH2-A677G mutant enzyme activity assay (HTRF)
- condition_label: read-out: IC50 for inhibiting the activity of enzyme EZH2-A677G
Kindly answer with a numeric value in nM, unit omitted.

[
  {
    "entry_smiles": "CCc1c(N(CC)C2CCOCC2)cc2oc(CN(C)C)cc2c1C(=O)NCc1c(OC)cc(C)[nH]c1=O",
    "experimental_endpoint": "IC50",
    "recorded_measurement": 2.9
  },
  {
    "entry_smiles": "CCc1c(N(CC)C2CCOCC2)cc2oc(CN3CCN(C(C)C)CC3)cc2c1C(=O)NCc1c(OC)cc(C)[nH]c1=O",
    "experimental_endpoint": "IC50",
    "recorded_measurement": 1.2
  },
  {
    "entry_smiles": "CCc1c(N(CC2CC2)C2CCOCC2)cc2oc(C3CC3)cc2c1C(=O)NCc1c(OC)cc(C)[nH]c1=O",
    "experimental_endpoint": "IC50",
    "recorded_measurement": 6.8
  },
  {
    "entry_smiles": "CCN(c1cc2oc(CN3CCCCC3)cc2c(C(=O)NCc2c(OC)cc(C)[nH]c2=O)c1C)C1CCOCC1",
    "experimental_endpoint": "IC50",
    "recorded_measurement": 14
  },
  {
    "entry_smiles": "CCN(c1cc2oc(C)cc2c(C(=O)NCc2c(OC)cc(C)[nH]c2=O)c1C)C1CCOCC1",
    "experimental_endpoint": "IC50",
    "recorded_measurement": 2.9
  },
  {
    "entry_smiles": "CCc1c(N(CC)C2CCOCC2)cc2oc(CN3CCCC3)cc2c1C(=O)NCc1c(OC)cc(C)[nH]c1=O",
    "experimental_endpoint": "IC50",
    "recorded_measurement": 6.2
  },
  {
    "entry_smiles": "CCN(c1cc2occ(C)c2c(C(=O)NCc2c(OC)cc(C)[nH]c2=O)c1C)C1CCOCC1",
    "experimental_endpoint": "IC50",
    "recorded_measurement": 5.9
  },
  {
    "entry_smiles": "CCc1c(N(CC)C2CCOCC2)cc2oc(F)cc2c1C(=O)NCc1c(OC)cc(C)[nH]c1=O",
    "experimental_endpoint": "IC50",
    "recorded_measurement": 3.5
  }
]

# input for lookup
### Prompt May I ask what IC50 has been recorded for `CCN(c1cc2occc2c(C(=O)NCc2c(OC)cc(C)[nH]c2=O)c1C)C1CCOCC1` ?
### Response 4

###

- test_target: EZH2-Y641F (Homo sapiens (Human), UniProt Q15910, Y641F)
- procedure_text: EZH2-Y641F mutant enzyme activity assay (HTRF)
- Format: biochemical
- condition_label: read-out: IC50 for inhibiting the activity of enzyme EZH2-Y641F
Consider the following molecules and their measured pIC50 readings.
pIC50 is defined as minus the log10 of a concentration measured in mol/L.

[
  {
    "entry_smiles": "CCc1c(N(CC)C2CCS(=O)(=O)CC2)cc2occc2c1C(=O)NCc1c(OC)cc(C)[nH]c1=O",
    "pIC50": 9.10
  },
  {
    "entry_smiles": "CCN(c1cc2occc2c(C(=O)NCc2c(OC)cc(C)[nH]c2=O)c1C)[C@H]1CC[C@H](N(C)C)CC1",
    "pIC50": 8.47
  }
]

### Prompt May I ask what pIC50 has been recorded for `CCN(c1cc2occc2c(C(=O)NCc2c(OC)cc(C)[nH]c2=O)c1C)C1CCN(S(C)(=O)=O)CC1` ?
### Response 8.49

### Prompt May I ask what pIC50 has been recorded for `CCN(c1cc2occc2c(C(=O)NCc2c(OC)cc(C)[nH]c2=O)c1C)C1CCOCC1` ?
### Response 8.64

### Prompt May I ask what pIC50 has been recorded for `CCc1c(N(CC)C2CCOCC2)cc2oc(C3CCN(C(C)C)CC3)cc2c1C(=O)NCc1c(C)cc(C)[nH]c1=O` ?
### Response 8.40

### Prompt May I ask what pIC50 has been recorded for `CCN(c1cc2occc2c(C(=O)NCc2c(OC)cc(C)[nH]c2=O)c1C)C1CCN(C(C)=O)CC1` ?
### Response 8.55

### Prompt May I ask what pIC50 has been recorded for `CCc1c(N(CC)C2CCC(F)(F)CC2)cc2occc2c1C(=O)NCc1c(OC)cc(C)[nH]c1=O` ?
### Response 8.35
